- target: T1, human 4-1BB, full-length, expressed on cells (human, UniProt Q07011 24-255)
- T1 construct: also called CD137; TNFRSF9
- T1 sequence (Q07011 24-255): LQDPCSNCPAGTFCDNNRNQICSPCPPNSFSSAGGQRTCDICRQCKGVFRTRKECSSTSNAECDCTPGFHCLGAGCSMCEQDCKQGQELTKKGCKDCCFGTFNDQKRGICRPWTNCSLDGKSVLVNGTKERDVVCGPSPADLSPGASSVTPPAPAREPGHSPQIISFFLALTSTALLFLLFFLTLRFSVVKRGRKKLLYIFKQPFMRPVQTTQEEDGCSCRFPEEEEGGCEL
- experiment summary: flow cytometry, Jurkat-4-1BB
quantity: EC50 (nM)
Field: numeric (nM). Do not append units.

// solved cases for EC50 follow
[
  {
    "binder": "v28703 (antibody, human IgG1, kappa, L234A L235A, V domains shown, also called humanized 5G8 H3L1) VH: QVQLQESGPGLVKPSETLSITCTVSGFSLISYGVHWVRQPPGKGLEWLGVIWSGGSTDYNPSLKSRVTISKDTSKNQVSFKLSSLTAADTAIYYCARNPLTATVMDYWGQGTLVTVSS VL: DIQMTQSPSSLSASVGDRVTITCRASQNVGTNVAWFQQKPGKAPKSLIYSASYRDSGVPSRFSGSGSGTDFTLTISSLQPEDFATYYCQQYNSYPLTFGGGTKVEIKR",
    "unit tag": "nM",
    "EC50": 3.58
  },
  {
    "binder": "v28687 (antibody, human IgG1, kappa, L234A L235A, V domains shown, also called humanized 1G1 H2L1) VH: EVQLVESGGGLVQPGGSLRLSCAASGFTFSEFGMHWVRQAPGKGLEWVAYISSGGSTIYYADSVKGRFTISRDNAKNSLYLQMNSLRAEDTAVYYCARDWVDYWGQGTLLTVSS VL: EIVLTQSPATLSLSPGERATLSCKASENVGSYVSWYQQKPGQAPRLLIYGASNRYTGIPARFSGSGSGTDFTLTISSLEPEDFAVYYCGQSYSYPLTFGGGTKVEIKR",
    "unit tag": "nM",
    "EC50": 1
  }
]

Proceed to the following item.
Prompt line: Provide measured EC50 value, entry: v28693 (antibody, human IgG1, kappa, L234A L235A, V domains shown, also called humanized 1G1 H3L3) VH: EVQLVESGGGLVQPGGSLRLSCAASGFTFSEFGMHWVRQAPGKGLEWVAYISSGGSTIYYADSVKGRFTISRDNAKNSLYLQMNSLRAEDTAMYYCARDWVDYWGQGTLLTVSS VL: EIVMTQSPATLSLSPGERVTLSCKASENVGSYVSWYQQKPGQAPRLLIYGASNRYTGVPARFSGSGSGTDFTLTISSVEPEDFAVYYCGQSYSYPLTFGGGTKLELKR
Response line: 0.353
